Where these numbers come from: the supplement of paper PMC9170038

System: MS2 coat protein
Assay: apparent KD of MS2 coat protein; designed switch direction (-1 OFF switch, 1 ON switch): -1; higher = weaker reporter binding
Conditions: Eterna round: R95; input ligand: microRNA oligo, concentration not stated
VALUE KIND: apparent KD of MS2 coat protein (nM)
Respond numerically; units are nM and should not be typed.

Query: So what apparent KD of MS2 coat protein did CCGCAAAUGUAGGAUAUCGUAUCGGAUACGAUACGAGAAGGGCAUACAUGAGGAUCACCCAUGUGUCCUAGCGG [Fiskers Ex 6 - 44] (puzzle: Exclusion 6) get with MS2 coat protein?
Response: 12

Query: Thanks! And UAAAAGAAGGUCAGGAUAUGUAGUGAGCAAUCAGGACAGAAGGGACAUGAGGAUCACCCAUGUAACAGGGUAAA [Eninares] (puzzle: Brourd's mod of Exclusion 4) ?
Response: 44.6

Query: // repeat for UACUUCCGAGGAUAUACAUGAGGAUCACCCAUGUGCUUCAGCAUCGAAAGAUGCAUGGGUAGAAGGCGGUAGUU [LRO-Excl3-19] (puzzle: Exclusion 3) and report
Response: 36.6

Query: Same thing, different sequence: UCGCUGCGAGGAUAUACGUGCGCGCGCUCGCGUUCGCGCGUACAUGAGGAUCACCCAUGUAGAAGGCGCGCUGC [Apr-15 SS2-5] (puzzle: Exclusion 2)
Response: 11.1

Query: Moving on to the next sequence: CUUUUGUGAGGAUAUCAGUAGUAAAUAAUUAAAAUUACUACUGAGAAGGCACAUGAGGAUCACCCAUGUUCCUC [salish99_ex3_r3_080] (puzzle: Exclusion 4)
Response: 40.3

Query: Check GGUGCUGGCGCGUCGGUGUUGGUGCAAUAAGCUUGUGAAACAUGAGGAUCACCCAUGUCCUCGUGGGCUCGUCUUGU [salish99_TOv2_r2_090] (puzzle: Sensor v3, turn-off variant 2) too.
Response: 12.5

---

Tested on: MS2 coat protein
Assay: apparent KD of MS2 coat protein; higher = weaker reporter binding
Settings: Eterna round: R107; input ligand: arginine 13.2 mM
Task for the reader: assign each of the following sequences its reported apparent KD of MS2 coat protein.
Express it in nM; write the number only.

Query: Item GCUUGGGUCGCAAGGCCCUGGCGUUGCGAUACCAGCACGGUAACGUGCCCUUGGCAGCGCACAUGAGGAUCACCCAUGUGGUGCG [#1 Exclusion - Theophylline A Attempt #22 (HarryS)] has what recorded apparent KD of MS2 coat protein?
Response: 16.5

Query: And the next one, AAUCAUAGGGCGGCCGCCACUAAACAUGAGGAUCACCCAUGUCUCGAGGGCUUGCGUUUGGGAAGUAGGACCGGGCCAAUAGUAA [Tryp B Ex Mod2] ?
Response: 18

Query: Record: AUACAUGAGGAUCACCCAUGUGAUGGCCGGCGAGGACCGGUACGGCCGCCACUCGUGAUCCGUCCUGAGAGCAAAGCUCUCAGCA [Macete]
Response: 76

Query: Moving on to the next sequence: GAUGGAAUAAGAGAUACCAGACACAAUUUAGCAUGUAUAUACAUGAGGAUCACCCAUGUAGUCCCUUGGCAGCUCUGGUUAGUGU [theeternabot_exclusion_MS2_Theo_B_48]
Response: 21.4

Query: How about UGUAUGUGAACUGAUACCAGACCUCAAUCUUGAGGAUCACCCAAGGAGGACGAAAGUCCGGUCCCUUGGCAGCAGUUCACAUACU [ThBS - Unstable 2] ?
Response: 162

Query: Now this one: AUACAUGAGGAUCACCCAUGUCACACAGAAGGAGCGGCUGUAGAGCCAGGUAGGUCGCUGUACUCAAAAUACUUCAUACUCAUGU [JR_Nu_ExcArginiA_Sub033]
Response: 34.9

Query: How about GGACUAACCAGAAGGAGCGACACGCAGAAACUGCUAAAUCCUCCGCACGAGGAUCACCCGUGUCAGGUAGGUCGCUGGUUAGUCG [ArgBX 28] ?
Response: 36.2

Query: Same read-out for AGAGUUAGACAAAAGUCUAGCUCACCAGAAGGAGCGUCCGAAAGGACAGGUAGGUCGCUGGUACGUGAGGAUCACCCACGUUCCU [ArgAS 18 #OpenEnded #AlternativeMS2] ?
Response: 21.6

Query: Also check GCUUAGAAACCUGAUACCAGUCAGCCCUAUGACAUGAGGAUCACCCAUGUGAUACUCACGGACCCUUGGCAGCAGGGUCGAUUAC [theeternabot_sameState_MS2_Theo_B_17]
Response: 231

Query: CGGUUUGUGAUGGAUACCAGCAGAGUGACUGUUUAUCCUGACAUGAGGAUCACCCAUGUGUGCCCUUGGCAGCUGUUGUGGGCUG [8.aA] , same question.
Response: 66.3

Query: Another sequence to look at: CGGUUUGUGAUGGAUACCAGCAGAGUGGCUGUUUAUCCUGACAUGAGGAUCACCCAUGUGUGCCCUUGGCAGCUGUUGUGGGCUG [8.aB]
Response: 85.8

Query: Now the same for AGUACAUGAGGAUCACCCAUGUGCCGGUAACGAGGACCGGUACGGCCGCCACUCGAUGUACCUCAAUUUGAUUGAGAUAAGAAAA [Anorbian]
Response: 34.2

Query: And for CCUCAAUAGACGGCCGCCACUGAAUCAUGCGGAUACAUGAGGAUCACCCAUGUGGGUGUGGUACGCAGGACCGGGUCAAGACCCG [#13 Same State - Tryptophan B] ?
Response: 278

Query: Please do the same for UUCUUUAAGUCGGCCGCCACUGAAACAUGAGGAUCACCCAUGUAUAUUUGUGUAUAGGUGGAUUACAGGACCGGGACUAUAGUAA [JR_ExcTryptoB_Sub023] as well.
Response: 15.1

Query: Record: AGCGACAUGCGUGAUACCAGCUACAUGAGGAUCACCCAUGUACGUCAGAAAUGACUGUGUAGCCCUUGGCAGCAUAAUGCAUGUC [Exclusion - Theophylline B (Freestyle 19)]
Response: 38.3
